Residues, ends and D or L forms follow the SMILES beside them.
Assay endpoint: melting point

See these solved cases before continuing.
CC(=O)NC(C)C(=O)NC(C)C(=O)NC(CC(C)C)C(=O)O (stereo not drawn) (Ac-Ala-Ala-Leu-OH; configuration not given here) = 185 to 186 °C
O=C(c1ccc(Cl)cc1)C(Br)c1ccc(Cl)cc1 (stereo unspecified) = 81.5 to 83 °C
COc1ccc(CC(=O)NCCc2ccc3[nH]cc(CC#N)c3c2)cc1 = 155 to 156 °C
O=C(O)[C@H]1[C@H](CS)N(Cc2ccccc2)C(=O)N1Cc1ccccc1 = 159 to 160 °C
CCCCCCCCCCCCCCC1Cc2ccc(C(=O)O)cc2N1C (racemic) = 115 to 118 °C

Kindly consider the entry below.
Entry under review: "N#CNC(=NC1CCN(Cc2ccccc2)CC1)N1CCc2ccccc2CC1" . Reported melting point?
192 to 194 °C

====

For each of the compounds below, state its melting point.

Sample answers from the record:
COc1ccc(C)cc1NC(=O)Nc1ccc(N2CCN(C(=O)Nc3ccccc3)CC2)cc1 = 221 °C
O=S1(=O)N[C@@H](c2cccc(Cl)c2)c2ccccc21 = 137 to 138 °C
Cc1c(Cl)ncc2ncc(-c3ccccc3)cc12 = 136 °C

I'm hoping you can list melting point for every compound here, please.
1. Cc1cc(N(C)Cc2ccc(-c3ccc(OC(F)(F)F)cc3)nc2)ccc1OCC(=O)O
2. O=C(O)C=C1SC(=Nc2cccc3ccccc23)N(c2cccc3ccccc23)C1=O
3. Cn1nc(-c2cc(C=NOCC(=O)O)c(Cl)cc2F)c(Cl)c1C(F)(F)F
4. NCc1nnc2n1-c1ccc(Cl)cc1C(c1ccccc1)=NC2
5. CC(CN(C(=O)c1ccco1)c1c(C)cccc1C)=NO
6. CC(=O)NC1CCN(c2c(F)cc3c(=O)c(C(=O)O)cn4c3c2CCC4C)CC1 (stereo not given)
7. OCCN1CCN(C2=Nc3ccccc3Oc3cscc32)CC1

["137 to 138 °C", "250 to 253 °C", "170 °C", "168 to 172 °C", "155 to 156 °C", "274 to 277 °C", "187 to 192 °C"]

====

Assay endpoint: melting point

Sample answers from the record:
O=C(O)CCC(=O)c1ccc(-c2ccc(F)cc2)cc1 = 174 to 176 °C
O=[N+]([O-])C=C1CCCN1C1=CC(CF)(CF)Oc2ccc(C(F)(F)C(F)(F)F)cc21 = 195 to 197 °C
CCOc1ccc2c(c1)n(-c1ccccn1)c(=O)n2S(=O)(=O)c1ccc(NC(=O)N(CC)CC)cc1OC = 171 °C

Could you now consider this next compound?
GET /values?readout=melting point&item= "CCCNC(=O)C(=CN(C)C)C(=O)c1ccccc1Cl"
76 to 78 °C

====

Provide the reported melting point of each item.

Cc1cc(OCc2oc(-c3ccc(C(F)(F)F)cc3)nc2C)ccc1OCC(=O)O = 136 to 137 °C
Cc1c(C)c2c(c(C)c1N)CC(C)(CI)O2 (stereo not given) = 105 to 107 °C
COC(=O)[C@@H]1CCCCOc2ccc(cc2)C[C@H](NC(=O)OC(C)(C)C)C(=O)N[C@@H](C(C)C)C(=O)N1 = 225 to 228 °C
Cc1ccc(Sc2ccccc2)c(CC(=O)O)c1 = 83 to 84 °C
CC1(C)CC(=O)OC1CC(Cl)(Cl)Cl (stereo not given) = 56 to 58 °C

Would you mind listing melting point for each of the following compounds?
1. O=C(c1ccco1)c1cc([N+](=O)[O-])ccc1Cl
2. COc1ccc(-c2c(C(=O)O)n(Cc3ccc4c(c3)OCO4)c3ccccc23)cc1
3. O=C1OC(CO)CN1c1ccccc1 (stereo not given)
4. COc1cc2c(c3c1OC(C)(C)C3)C(c1cccc(C#N)c1)=NCC2(C)C

93 to 96 °C
109 to 111 °C
122 to 124 °C
178 to 180 °C

Look at each compound and report its melting point.
1. O=C(Nc1ccccc1)c1cccc(Nc2ccccc2)c1
2. OC(CN1CCNC1=S)c1cccc(Cl)c1 (stereo not given)
3. CCOC(=O)C(C)Oc1ncn(-c2ccc(OC)cc2)n1 (stereo not given)

1. 134 to 135 °C
2. 128 °C
3. 62 to 64 °C

I need melting point for every entry listed below, if you could help.
1. C(=C1/CCCc2ccccc21)/c1cnc[nH]1
2. COc1ccc(-c2cnc(NS(=O)(=O)c3ccc(C)cc3)nc2)cc1
3. CC1CCN(C(=O)[C@H](CCCNc2ncccn2)NS(=O)(=O)c2ccc3ccccc3c2)CC1

1: 136 to 138 °C; 2: 220 to 223 °C; 3: 98 to 100 °C
